Each record here notes measured composite z-score.
TARGET_OF_ASSAY: Torsin-1A-interacting protein 2 (Homo sapiens)
TEST_METHOD_NOTES: LULL1 binders on small-molecule microarray, primary screen, cell lysate, human LULL1 lysate, 635/667 nm fluorescence (AID 1092);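 further: probe is lysate of COS7 cells overexpressing human LULL1; score merges per-feature 667 nm fluorescence with signal-to-noise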
ASSAY_CONDITIONS: hLULL1 lysate binding, 635 nm fluorescence, higher = more signal

| STRUCTURE | TARGET_OF_ASSAY | composite z-score |
| --- | --- | --- |
| CO[C@H]1COC(=O)[C@H](C)NC(=O)[C@@H](C)COC(=O)[C@H]2CCCN2C(=O)CC=C[C@H]1C | Torsin-1A-interacting protein 2 (Homo sapiens) | -0.412 |
| O=C1[C@H]2[C@H]3[C@H](O)[C@H](O)CC(=NOCc4ccccc4)[C@H]3CC[C@H]2C(=O)N1Cc1ccc2c(c1)OCO2 | Torsin-1A-interacting protein 2 (Homo sapiens) | 1.1 |
| COC(=O)NCC=Cc1nc(CCCO)co1 | Torsin-1A-interacting protein 2 (Homo sapiens) | 0.39 |
| COC(=O)[C@H]1[C@@H](O)[C@@]2(O)c3ccccc3O[C@@]2(c2ccccc2)[C@@H]1c1ccccc1 | Torsin-1A-interacting protein 2 (Homo sapiens) | 0.124 |
| O=C1C2=CC[C@H]3C(=O)N(c4cccc(Oc5ccccc5)c4)C(=O)[C@H]3[C@H]2[C@H](O)[C@@H]2O[C@H]12 | Torsin-1A-interacting protein 2 (Homo sapiens) | -0.122 |
| COC(=O)CC=C[C@@H](C)[C@@H](C=NO[C@H](C)c1cn([C@H](CO)Cc2ccccc2)nn1)OC | Torsin-1A-interacting protein 2 (Homo sapiens) | 0.169 |
| CO[C@@H]1COC(=O)[C@@H](C)NC(=O)CC=C[C@@H](C)[C@H](NS(=O)(=O)c2ccc(C)cc2)COC(=O)[C@H](C)NC(=O)CC=C[C@H]1C | Torsin-1A-interacting protein 2 (Homo sapiens) | 0.537 |
| CC(=O)Nc1ccc([C@@H]2N[C@H](C(=O)O)CC[C@H]2C)cc1 | Torsin-1A-interacting protein 2 (Homo sapiens) | 0.184 |
